Tgt: GST-RIPK1 (recombinant GST-RIPK1 kinase domain (residues 1-327)) (Homo sapiens, UniProt Q13546)
Construct: recombinant GST-RIPK1 kinase domain (residues 1-327) enzyme produced from baculovirus-transfected Sf21 cells
Sequence (Q13546 1-327): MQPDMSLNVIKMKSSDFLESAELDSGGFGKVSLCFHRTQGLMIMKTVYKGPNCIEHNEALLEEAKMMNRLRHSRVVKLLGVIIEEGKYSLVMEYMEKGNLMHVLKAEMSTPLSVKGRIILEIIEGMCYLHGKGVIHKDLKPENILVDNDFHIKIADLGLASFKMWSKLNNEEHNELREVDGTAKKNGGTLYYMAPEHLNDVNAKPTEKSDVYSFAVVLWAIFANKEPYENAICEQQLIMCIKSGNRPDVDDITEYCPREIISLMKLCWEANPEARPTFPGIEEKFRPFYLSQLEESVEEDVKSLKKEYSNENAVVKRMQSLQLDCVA
Assay: RIPK1-ADP-Glo Enzymatic Assay
Conditions Used: ten-point titration, top compound concentration of 100000 nM; 25 nM GST-RIPK1, 300 μM ATP, 3 μM dephosphorylated-MBP; 30 min pre-incubation, 150 min reaction
pEC50: −log10 of the molar value.
// reported pEC50 per item
Parameter Measured: pEC50

N#Cc1cc(OC2CC3(C2)O[C@@H]2CC[C@@H](c4cccc(F)c4F)N2C3=O)ncn1 (single isomer, unassigned) [Example 9.40] : 6.32
CC(OC1CC2(C1)OC1CCC(c3cc(F)cc(F)c3)N1C2=O)c1ccccc1 (single isomer, unassigned) [Example 15.2] : 7.15
O=C1N2C(CC[C@H]2c2cnccn2)OC12CC(OCc1ccc3nc(C(F)(F)F)sc3c1)C2 (stereo partly shown) [Example 18.97] : 6.54
O=C1N2[C@@H](CC[C@H]2c2cc(F)cc(F)c2)OC12CC(Oc1ccc(F)cn1)C2 (stereo partly shown) [Example 9.37] : 7.72
O=C1N2C(CC[C@H]2c2cnccn2)OC12CC(OCc1ccccc1-n1cccn1)C2 (stereo partly shown) [Example 18.53] : 6.93
N#Cc1cncc(O[C@H]2C[C@@]3(C2)O[C@@H]2CC[C@@H](c4ccc(F)cc4)N2C3=O)c1 [Example 9.49] : 7.82
Cc1cc2c(O[C@H]3C[C@@]4(C3)O[C@@H]3CC[C@@H](c5cc(F)cc(F)c5)N3C4=O)ncnc2s1 [Example 9.33] : 8.10

---

Recorded measurements of EC50, one per entry
Tgt: GST-RIPK1 (recombinant GST-RIPK1 kinase domain (residues 1-327)) (Homo sapiens, UniProt Q13546)
Construct: recombinant GST-RIPK1 kinase domain (residues 1-327) enzyme produced from baculovirus-transfected Sf21 cells
Assay: RIPK1-ADP-Glo Enzymatic Assay
Conditions Used: ten-point titration, top compound concentration of 100000 nM; 25 nM GST-RIPK1, 300 μM ATP, 3 μM dephosphorylated-MBP; 30 min pre-incubation, 150 min reaction
Parameter Measured: EC50 (nM)

N#Cc1ccc2c(O[C@H]3C[C@@]4(C3)O[C@@H]3CC[C@@H](c5cc(F)cc(F)c5)N3C4=O)ncnn12 [Example 11.2] : 16
Cn1nccc1-c1cccc(OC2CC3(C2)O[C@@H]2CC[C@@H](c4cnccn4)N2C3=O)c1 (stereo partly shown) [Example 19.14] : 16
N#Cc1cc(O[C@H]2C[C@@]3(C2)O[C@@H]2CC[C@@H](c4cc(F)cc(F)c4)N2C3=O)ncn1 [Example 9.2] : 16
N#CCc1cccc(COC2CC3(C2)OC2CC[C@@H](c4cnccn4)N2C3=O)c1 (stereo partly shown) [Example 18.62] : 47
O=C1N2[C@@H](CC[C@H]2c2ccccc2)OC12CC(Oc1cncc(Cl)c1)C2 (stereo partly shown) [Example 8.17] : 35
N#Cc1cc(O[C@H]2C[C@@]3(C2)O[C@@H]2CC[C@@H](c4ccccc4)N2C3=O)ncn1 [Example 9.17] : 18
O=C1N2[C@@H](CC[C@H]2c2ccccc2)OC12CC(Oc1cncc(C(F)(F)F)c1)C2 (stereo partly shown) [Example 8.8] : 155

Source of measurements: patent US20250154173A1
